- assayed-system: PARP-1 enzyme (Homo sapiens)
- Construct: made in house
- Sequence (P09874 whole entry): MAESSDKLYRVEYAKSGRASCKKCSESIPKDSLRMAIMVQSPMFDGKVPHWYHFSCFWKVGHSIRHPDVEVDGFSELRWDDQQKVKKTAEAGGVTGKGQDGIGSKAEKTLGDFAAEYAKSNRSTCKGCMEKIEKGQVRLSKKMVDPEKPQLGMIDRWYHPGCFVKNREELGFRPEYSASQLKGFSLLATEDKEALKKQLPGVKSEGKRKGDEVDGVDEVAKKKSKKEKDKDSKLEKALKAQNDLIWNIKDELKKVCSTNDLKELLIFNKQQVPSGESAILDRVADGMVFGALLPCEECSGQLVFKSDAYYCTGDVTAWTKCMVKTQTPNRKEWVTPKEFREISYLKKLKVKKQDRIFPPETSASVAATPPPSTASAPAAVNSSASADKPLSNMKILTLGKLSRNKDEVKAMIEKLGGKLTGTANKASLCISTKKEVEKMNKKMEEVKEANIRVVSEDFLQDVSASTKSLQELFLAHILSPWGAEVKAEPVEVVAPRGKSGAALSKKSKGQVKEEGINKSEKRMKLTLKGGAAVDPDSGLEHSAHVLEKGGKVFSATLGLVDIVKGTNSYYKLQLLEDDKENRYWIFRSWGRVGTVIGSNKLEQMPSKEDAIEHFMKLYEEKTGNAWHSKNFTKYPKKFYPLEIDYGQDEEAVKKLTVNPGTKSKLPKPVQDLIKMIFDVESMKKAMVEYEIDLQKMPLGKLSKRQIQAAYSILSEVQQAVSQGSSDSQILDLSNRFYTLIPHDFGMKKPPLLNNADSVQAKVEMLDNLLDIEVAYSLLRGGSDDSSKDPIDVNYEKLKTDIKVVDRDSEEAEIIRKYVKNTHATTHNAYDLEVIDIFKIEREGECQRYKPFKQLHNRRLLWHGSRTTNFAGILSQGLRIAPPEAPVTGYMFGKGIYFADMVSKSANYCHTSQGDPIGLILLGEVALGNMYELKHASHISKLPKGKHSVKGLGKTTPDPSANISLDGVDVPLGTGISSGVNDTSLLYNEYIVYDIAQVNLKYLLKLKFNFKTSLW
- measurement-description: In vitro Scintillation Proximity Assay (SPA) for PARP-1 inhibitory activity
- Format: biochemical
- cond: nicked DNA activated PARP-1, [3H]-NAD+, biotinylated histones; read-out: In vitro SPA pIC50 (converted)
outcome-measure: IC50 (nM)

CCc1cc2cc(C(c3ccc(Cl)c(F)c3)N3CCC(NCCOC)CC3)ccc2[nH]c1=O (stereo not drawn) = 361
C#CC(O)(c1ccccc1)c1ccc2[nH]c(=O)c(C)cc2c1 (stereo not drawn) = 689
CCc1cc2cc(C(c3ccc(Cl)cc3)N3CCN(C)CC3)ccc2[nH]c1=O (stereo not drawn) = 296
CCc1cc2cc(C(c3ccc(F)cc3)N3CCC(NCCOC)CC3)ccc2[nH]c1=O (stereo not drawn) = 208
CCc1cc2cc(C(NC=O)c3ccccc3)ccc2[nH]c1=O (stereo not drawn) = 69.8
CCc1nc2cc(CC(=O)c3ccccc3)ccc2[nH]c1=O = 564
COc1ccc(C(c2ccc3[nH]c(=O)c(C)nc3c2)n2ccnc2)cc1 (stereo not drawn) = 361
CCc1cc2cc(C(NCCCN(C)Cc3ccccc3)c3ccc4c(c3)OCCO4)ccc2[nH]c1=O (stereo not drawn) = 33.6

[P] Cc1cc2cc(/C(=C3\CCCN(C)C3)c3ccccc3)ccc2[nH]c1=O
[Q] CCc1nc2cc(CC(c3ccc(Cl)cc3)N3CCCC3)ccc2[nH]c1=O (stereo not drawn)
[R] Cc1cc2cc(C(NC=O)c3cccc(Cl)c3)ccc2[nH]c1=O (stereo not drawn)
[S] Cc1cc2cc(C(c3ccc(Cl)cc3)n3ccnc3)ccc2[nH]c1=O (stereo not drawn)
Exercise: Order the 4 compounds from highest to lowest IC50. Sort and list the labels as requested.
Key: S, R, P, Q

[a] CN(CCCNC(c1cccc(C(F)(F)F)c1)c1ccc2[nH]c(=O)c3ccccc3c2c1)Cc1ccccc1 (stereo not drawn)
[b] CCc1cc2cc(C(OCCN(C)C)c3cccc(Cl)c3)ccc2[nH]c1=O (stereo not drawn)
Exercise: Hi team, can someone confirm which has the larger IC50: a or b ? Thanks. Choose, then provide that item's label.
Key: a

[A] CCc1nc2cc(C(c3ccccc3)n3cncn3)ccc2[nH]c1=O (stereo not drawn)
[B] Cc1cc2cc(C(C)(C#N)c3ccccc3)ccc2[nH]c1=O (stereo not drawn)
Exercise: Field: lower IC50 | Options: A / B Choose, then provide that item's label.
Key: B
(B: 189 nM, A: 362 nM)

[1] CCc1cc2cc(C(c3ccc4ccccc4c3)N3CCC(NCCOC)CC3)ccc2[nH]c1=O (stereo not drawn)
[2] CCc1nc2cc(CC(=O)c3ccc(Cl)cc3)ccc2[nH]c1=O
Exercise: Hi team, can someone confirm which has the larger IC50: 1 or 2 ? Thanks. Choose, then provide that item's label.
Key: 2
(2: 556 nM, 1: 276 nM)

[1] CCc1cc2cc(C(c3ccc(F)cc3F)N3CCC(NCCOC)CC3)ccc2[nH]c1=O (stereo not drawn)
[2] Cc1cc2cc(C(O)c3ccc4c(c3)OCO4)ccc2[nH]c1=O (stereo not drawn)
Exercise: Hi team, can someone confirm which has the larger IC50: 1 or 2 ? Thanks. Choose, then provide that item's label.
Key: 2
(2: 611 nM, 1: 373 nM)

====

outcome-measure: melting point (°C)

Cc1cc2cc(C(c3ccccc3)n3cncn3)ccc2[nH]c1=O (stereo not drawn) = 254.2
CCc1cc2cc(C(=C3CCN(CCc4ccc(OC)cc4)CC3)c3ccc4c(c3)OCCO4)ccc2[nH]c1=O = 203
COC(c1ccccc1)c1ccc2[nH]c(=O)c(C)cc2c1 (stereo not drawn) = 207.3
CCc1cc2cc(C(O)c3ccc4c(c3)OCO4)ccc2[nH]c1=O (stereo not drawn) = 211
CNC(c1ccccc1)c1ccc2[nH]c(=O)c(C)cc2c1 (stereo not drawn) = 174.3
CCc1nc2cc(CC(c3ccc(Cl)cc3)N3CCCC3)ccc2[nH]c1=O (stereo not drawn) = 194
Cc1cc2cc(C(C#N)c3ccccc3)ccc2[nH]c1=O (stereo not drawn) = 227.5
CCc1cc2cc(C(OC(C)=O)c3ccccc3)ccc2[nH]c1=O (stereo not drawn) = 168.2
CCc1cc2cc(C(c3ccccc3)n3ccnc3)ccc2[nH]c1=O (stereo not drawn) = 220.1
CCc1cc2cc([C@H](CCN3CCCCC3)c3ccc4c(c3)OCCO4)ccc2[nH]c1=O (single isomer, unassigned) = 172
CCc1nc2cc(CC(O)c3ccc(Cl)cc3)ccc2[nH]c1=O (stereo not drawn) = 204
Cc1cc2cc(C(c3ccccc3)N(C)C)ccc2[nH]c1=O (stereo not drawn) = 226.7
CCc1cc2cc(C(=O)c3ccc4c(c3)OCCO4)ccc2[nH]c1=O = 255
CC(=O)NCC(c1ccccc1)c1ccc2[nH]c(=O)c(C)cc2c1 (stereo not drawn) = 206.2

These measurements were taken from patent US8071612B2.
